Tested on: Vibrio cholerae
Test: Antibacterial activity against Vibrio cholerae MTCC 3906 after 24 hrs by broth microdilution method
Assay type: functional
Test settings: MTCC 3906, 24 h
Property: MIC (µg/mL)
Answer format: numeric, µg/mL implied, no suffix.

Sample answers from the record:
Compound: Cc1nn(-c2ccccc2)c2c1[C@@H]1c3cc4cccc(C)c4nc3SC[C@@H]1CO2
Assay system: Vibrio cholerae
MIC (µg/mL): 250
//
Compound: Cc1nn(-c2ccc([N+](=O)[O-])cc2)c2c1[C@@H]1c3c(ccc4c(C)cc(=O)oc34)OC[C@@H]1CO2
Assay system: Vibrio cholerae
MIC (µg/mL): 250

Inquiry: # input compound: Cc1cc(=O)oc2c3c(ccc12)OC[C@H]1[C@@H]3c2c(-c3ccccc3)nn(-c3ccccc3)c2OC1(C)C ; wanted: its MIC
Reply text: 125

Inquiry: Which MIC is listed for O=C(O)c1cn(C2CC2)c2cc(N3CCNCC3)c(F)cc2c1=O ?
Reply text: 25
